# Target: HLA-B*40:01
# Assay remarks: IEDB peptide-MHC binding, purified MHC/direct/fluorescence; filed as Kd, often an IC50 or EC50 that approximates it; bounds were set here for any values at or beyond the usual limits of such assays
# Protocol conditions: source organism: Vibrio parahaemolyticus

Chain sequence: MLDQFGVSY
Target: HLA-B*40:01
Kd: ≥ 20 µM

----------
# Target: HLA-B*15:17
# Assay remarks: IEDB peptide-MHC binding, purified MHC/competitive/fluorescence; filed as Kd, often an IC50 or EC50 that approximates it; bounds were set here for any values at or beyond the usual limits of such assays
# Protocol conditions: source organism: Giardia lamblia ATCC 50803

Chain sequence: DEYGPVFVE
Target: HLA-B*15:17
Kd: ≥ 20 µM

----------
# Target: HLA-A*68:02
# Assay remarks: IEDB peptide-MHC binding, purified MHC/competitive/radioactivity; filed as Kd, often an IC50 or EC50 that approximates it; bounds were set here for any values at or beyond the usual limits of such assays
# Protocol conditions: source organism: Dengue virus 4 Dominica/814669/1981

Chain sequence: NTNSVTNIEL
Target: HLA-A*68:02
Unit abbreviation: µM
Kd: 0.0388

----------
# Target: HLA-A*25:01
# Assay remarks: IEDB peptide-MHC binding, purified MHC/competitive/fluorescence; bounds were set here for any values at or beyond the usual limits of such assays
# Protocol conditions: source organism: Pan troglodytes
Experimental readout: IC50

Chain sequence: RPPYSSYGY
Endpoint value: ≥ 20 µM

----------
# Target: HLA-B*45:06
# Assay remarks: IEDB peptide-MHC binding, purified MHC/competitive/fluorescence; filed as Kd, often an IC50 or EC50 that approximates it; bounds were set here for any values at or beyond the usual limits of such assays
# Protocol conditions: source organism: Homo sapiens

Chain sequence: RVMAPRALL
Kd: ≥ 5 µM

----------
# Target: HLA-A*69:01
# Assay remarks: IEDB peptide-MHC binding, purified MHC/direct/fluorescence; filed as Kd, often an IC50 or EC50 that approximates it; bounds were set here for any values at or beyond the usual limits of such assays
# Protocol conditions: source organism: Amur virus

Chain sequence: LLPGVAHSI
Kd: ≥ 20 µM

----------
# Target: HLA-B*15:01
# Assay remarks: IEDB peptide-MHC binding, purified MHC/direct/fluorescence; filed as Kd, often an IC50 or EC50 that approximates it; bounds were set here for any values at or beyond the usual limits of such assays
# Protocol conditions: source organism: Mycobacterium tuberculosis

Chain sequence: RPRLHSISF
Target: HLA-B*15:01
Unit abbreviation: nM
Kd: 79

----------
# Target: HLA-B*15:01
# Assay remarks: IEDB peptide-MHC binding, purified MHC/direct/fluorescence; filed as Kd, often an IC50 or EC50 that approximates it; bounds were set here for any values at or beyond the usual limits of such assays
# Protocol conditions: source organism: SARS-CoV1
pKd: −log10 of the molar value.
Experimental readout: pKd

Chain sequence: KMSEYKGPV
Endpoint value: 5.18

----------
# reported Kd; entries follow
# Target: HLA-A*03:01
# Assay remarks: IEDB peptide-MHC binding, purified MHC/competitive/radioactivity; filed as Kd, often an IC50 or EC50 that approximates it; bounds were set here for any values at or beyond the usual limits of such assays
# Protocol conditions: source organism: Mammarenavirus guanaritoense
Experimental readout: Kd (µM)

Chain sequence: TCITSMAER
Experimental readout: Kd
Unit abbreviation: µM
Limit qualifier: ≥
Endpoint value: 67
--
Chain sequence: RSKIEVGIRH
Experimental readout: Kd
Unit abbreviation: µM
Limit qualifier: =
Endpoint value: 13.7

----------
# Target: HLA-A*68:01
# Assay remarks: IEDB peptide-MHC binding, purified MHC/competitive/radioactivity; filed as Kd, often an IC50 or EC50 that approximates it; bounds were set here for any values at or beyond the usual limits of such assays
# Protocol conditions: source organism: Dengue virus 4 Philippines/H241/1956
# reported Kd; entries follow

Chain sequence: LTLFVEECLR
Kd (nM): 56.2

Chain sequence: EGVYRIMQR
Kd (nM): 215

----------
# Target: HLA-A*29:02
# Assay remarks: IEDB peptide-MHC binding, purified MHC/competitive/fluorescence; filed as Kd, often an IC50 or EC50 that approximates it; bounds were set here for any values at or beyond the usual limits of such assays
# Protocol conditions: source organism: Vibrio parahaemolyticus AQ3810

Chain sequence: KVGYFQHGA
Kd: ≥ 20 µM

----------
# Target: HLA-A*02:19
# Assay remarks: IEDB peptide-MHC binding, purified MHC/direct/fluorescence; filed as Kd, often an IC50 or EC50 that approximates it; bounds were set here for any values at or beyond the usual limits of such assays
# Protocol conditions: source organism: Squirrelpox virus

Chain sequence: MACHRVLTY
Kd: ≥ 20 µM

----------
# reported Kd; entries follow
# Target: HLA-B*58:01
# Assay remarks: IEDB peptide-MHC binding, purified MHC/direct/fluorescence; filed as Kd, often an IC50 or EC50 that approximates it; bounds were set here for any values at or beyond the usual limits of such assays
# Protocol conditions: source organism: Mycobacterium tuberculosis

Chain sequence: RPAGARAAF
Kd: ≥ 20 µM
--
Chain sequence: RPRLHSISF
Kd: ≥ 20 µM

----------
# Target: HLA-B*46:01
# Assay remarks: IEDB peptide-MHC binding, purified MHC/competitive/fluorescence; filed as Kd, often an IC50 or EC50 that approximates it; bounds were set here for any values at or beyond the usual limits of such assays
# Protocol conditions: source organism: Giardia lamblia ATCC 50803

Chain sequence: DEYGPVFVE
Kd: ≥ 20 µM

----------
# Target: HLA-A*02:01
# Assay remarks: IEDB peptide-MHC binding, purified MHC/competitive/radioactivity; filed as Kd, often an IC50 or EC50 that approximates it; bounds were set here for any values at or beyond the usual limits of such assays
# Protocol conditions: source organism: Dengue virus 1 Singapore/S275/1990
# reported Kd; entries follow

Chain sequence: KILNPYMPSV
Unit abbreviation: nM
Kd: 4.81
//
Chain sequence: ILNPYMPSV
Unit abbreviation: nM
Kd: 4.26

----------
# Target: HLA-B*07:02
# Assay remarks: IEDB peptide-MHC binding, purified MHC/direct/fluorescence; filed as Kd, often an IC50 or EC50 that approximates it; bounds were set here for any values at or beyond the usual limits of such assays
# Protocol conditions: source organism: Hepacivirus hominis
pKd: −log10 of the molar value.

Chain sequence: GAAGARGAL
Target: HLA-B*07:02
pKd: 7.89

----------
# Target: HLA-A*02:19
# Assay remarks: IEDB peptide-MHC binding, purified MHC/direct/fluorescence; filed as Kd, often an IC50 or EC50 that approximates it; bounds were set here for any values at or beyond the usual limits of such assays
# Protocol conditions: source organism: West Nile virus strain PTRoxo
pKd: −log10 of the molar value.
Experimental readout: pKd

Chain sequence: MTRGLLGSY
Experimental readout: pKd
Endpoint value: ≤ 4.70

----------
# Target: HLA-B*27:05
# Assay remarks: IEDB peptide-MHC binding, purified MHC/direct/fluorescence; filed as Kd, often an IC50 or EC50 that approximates it; bounds were set here for any values at or beyond the usual limits of such assays
# Protocol conditions: source organism: Haemophilus influenzae
pKd: −log10 of the molar value.
# reported pKd; entries follow

Chain sequence: EIKFNDITF
pKd: ≤ 4.70

Chain sequence: YATVAGHEG
pKd: ≤ 4.70

----------
# Target: HLA-A*68:01
# Assay remarks: IEDB peptide-MHC binding, purified MHC/competitive/radioactivity; filed as Kd, often an IC50 or EC50 that approximates it; bounds were set here for any values at or beyond the usual limits of such assays
# Protocol conditions: source organism: SARS coronavirus Tor2
pKd: −log10 of the molar value.

Chain sequence: MLVYCFLGY
pKd: 5.94
--
Chain sequence: YSYATHHDK
pKd: 7.79
--
Chain sequence: YLALYNKYK
pKd: 6.04
--
Chain sequence: GVRFFFYTSK
pKd: 6.92
--
Chain sequence: VMCGGSLYVK
pKd: 5.07
--
Chain sequence: QTMLFTMLR
pKd: 8.58
--
Chain sequence: LLLFADINGK
pKd: 5.04
--
Chain sequence: STAWLCALGK
pKd: 8.32
--
Chain sequence: STGNYNYKYR
pKd: 6.61
--
Chain sequence: FLIGANYLGK
pKd: 7.29
--
Chain sequence: ATAHSELAK
pKd: 7.72
--
Chain sequence: QLLMPLKAPK
pKd: 5.82
--
Chain sequence: KVIQPRVEK
pKd: 6.05
--
Chain sequence: LQGPPGTGK
pKd: 4.96
--
Chain sequence: RTELGVEFLK
pKd: 5.01
--
Chain sequence: GALHLYFDK
pKd: 5.30

----------
# Target: HLA-A*69:01
# Assay remarks: IEDB peptide-MHC binding, purified MHC/direct/fluorescence; filed as Kd, often an IC50 or EC50 that approximates it; bounds were set here for any values at or beyond the usual limits of such assays
# Protocol conditions: source organism: Oligoflexia bacterium
pKd: −log10 of the molar value.
Experimental readout: pKd

Chain sequence: EYSGGLHGV
Experimental readout: pKd
Endpoint value: 6.34
